The measured values listed here are drawn from ChEMBL document CHEMBL5518190.

molecular target: Phosphatidylinositol 4,5-bisphosphate 3-kinase catalytic subunit beta isoform (Homo sapiens, UniProt P42338); assay: Inhibition of human recombinant PI3Kbeta
Sequence (P42338 whole entry, canonical isoform): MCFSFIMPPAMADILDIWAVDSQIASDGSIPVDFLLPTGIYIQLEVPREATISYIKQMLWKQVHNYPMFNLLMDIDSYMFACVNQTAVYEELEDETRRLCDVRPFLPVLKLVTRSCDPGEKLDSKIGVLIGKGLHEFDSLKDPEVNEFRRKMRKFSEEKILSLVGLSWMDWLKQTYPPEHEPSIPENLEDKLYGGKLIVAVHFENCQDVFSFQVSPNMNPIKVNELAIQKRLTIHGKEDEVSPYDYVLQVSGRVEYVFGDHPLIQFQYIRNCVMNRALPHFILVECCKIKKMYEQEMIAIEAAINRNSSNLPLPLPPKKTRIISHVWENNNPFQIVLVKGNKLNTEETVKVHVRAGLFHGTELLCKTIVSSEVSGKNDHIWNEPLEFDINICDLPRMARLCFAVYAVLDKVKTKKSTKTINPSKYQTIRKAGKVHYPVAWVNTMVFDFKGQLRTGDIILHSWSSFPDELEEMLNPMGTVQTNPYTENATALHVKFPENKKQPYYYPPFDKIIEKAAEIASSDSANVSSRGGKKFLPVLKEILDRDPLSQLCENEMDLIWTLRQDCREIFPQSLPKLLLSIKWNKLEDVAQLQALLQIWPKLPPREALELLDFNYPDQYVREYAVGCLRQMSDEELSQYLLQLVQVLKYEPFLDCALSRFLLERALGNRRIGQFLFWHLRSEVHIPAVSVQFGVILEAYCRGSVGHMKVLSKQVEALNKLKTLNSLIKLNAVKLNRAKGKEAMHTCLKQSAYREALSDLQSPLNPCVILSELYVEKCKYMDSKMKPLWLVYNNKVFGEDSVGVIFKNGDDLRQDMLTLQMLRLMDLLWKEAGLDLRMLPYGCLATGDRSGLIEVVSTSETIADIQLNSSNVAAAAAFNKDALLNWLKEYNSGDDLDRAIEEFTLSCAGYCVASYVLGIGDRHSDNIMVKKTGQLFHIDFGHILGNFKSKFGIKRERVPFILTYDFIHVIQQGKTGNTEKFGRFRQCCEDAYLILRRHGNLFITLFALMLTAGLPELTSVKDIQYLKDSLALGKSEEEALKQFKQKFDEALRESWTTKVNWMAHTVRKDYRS
READOUT_TYPE: IC50
Your answer should be a number followed by the unit of measure.

In plain terms, "O=C(Nc1ncc2ncc(-c3cn[nH]c3)cc2n1)NC1CCCC1" has a documented IC50 of 5 nM

###

biological target: Serine/threonine-protein kinase mTOR (Homo sapiens)
READOUT_TYPE: pIC50
Numbers only, as −log10 of the molar value.

# pIC50 of CCn1c(=O)c(-c2cc[nH]n2)cc2c(C)nc(N)nc21 [VOXTALISIB] = 6.82

###

target: Phosphatidylinositol 4,5-bisphosphate 3-kinase catalytic subunit gamma isoform (Homo sapiens); experiment: Inhibition of PI3Kgamma (unknown origin) using […] as substrate preincubated for 15 mins followed by substrate addition and measured after 1 hr by HTRF assay
Sequence (P48736 whole entry, canonical isoform): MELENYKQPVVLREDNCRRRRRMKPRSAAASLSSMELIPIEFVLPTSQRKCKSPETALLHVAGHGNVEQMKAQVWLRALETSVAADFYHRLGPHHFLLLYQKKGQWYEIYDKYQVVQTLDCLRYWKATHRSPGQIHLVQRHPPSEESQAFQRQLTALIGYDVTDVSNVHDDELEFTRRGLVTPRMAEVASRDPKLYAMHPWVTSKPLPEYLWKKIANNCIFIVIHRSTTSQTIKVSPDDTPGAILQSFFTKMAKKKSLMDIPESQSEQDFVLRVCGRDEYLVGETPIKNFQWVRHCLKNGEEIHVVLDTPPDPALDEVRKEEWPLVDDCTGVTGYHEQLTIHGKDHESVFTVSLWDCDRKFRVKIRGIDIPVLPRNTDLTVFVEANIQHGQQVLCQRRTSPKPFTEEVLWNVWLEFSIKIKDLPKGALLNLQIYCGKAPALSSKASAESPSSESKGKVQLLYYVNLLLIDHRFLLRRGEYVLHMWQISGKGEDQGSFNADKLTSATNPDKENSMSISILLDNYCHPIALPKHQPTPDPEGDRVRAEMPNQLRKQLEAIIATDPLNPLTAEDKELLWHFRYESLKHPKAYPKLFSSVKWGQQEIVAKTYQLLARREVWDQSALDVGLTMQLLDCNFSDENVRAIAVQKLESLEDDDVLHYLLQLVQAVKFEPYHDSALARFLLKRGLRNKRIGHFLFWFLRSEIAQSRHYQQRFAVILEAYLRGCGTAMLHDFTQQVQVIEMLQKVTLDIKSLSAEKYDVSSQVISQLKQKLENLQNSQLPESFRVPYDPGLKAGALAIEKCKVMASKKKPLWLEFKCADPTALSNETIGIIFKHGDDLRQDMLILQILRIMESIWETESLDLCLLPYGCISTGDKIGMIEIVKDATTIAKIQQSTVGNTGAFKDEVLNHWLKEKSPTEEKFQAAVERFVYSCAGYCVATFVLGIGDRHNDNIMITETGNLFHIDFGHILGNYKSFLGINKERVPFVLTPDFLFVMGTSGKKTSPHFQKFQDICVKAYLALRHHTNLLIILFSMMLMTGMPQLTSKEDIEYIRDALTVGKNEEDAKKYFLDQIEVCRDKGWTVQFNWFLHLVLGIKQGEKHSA
READOUT_TYPE: IC50 (µM)
Answers are plain numbers, in µM.

So, "CCOC(=O)c1nn(-c2ccccc2)c(=O)c2c(N)c(C#N)c(-c3cccs3)cc12" ? Its IC50 was 30

###

biological target: Phosphatidylinositol 4,5-bisphosphate 3-kinase catalytic subunit alpha isoform (Homo sapiens)
READOUT_TYPE: IC50 (nM)
Give bare numbers, in nM.

The measured IC50 associated with "COc1c(OCCCCCC(=O)NO)ccc2c1N=C(NC(=O)c1ccccc1)N1CCN=C21" reads 2.98

###

target: Phosphatidylinositol 4,5-bisphosphate 3-kinase catalytic subunit alpha isoform (Homo sapiens, UniProt P42336); assay: Inhibition of PI3Kalpha (unknown origin) using PIP2 as substrate preincubated for 15 mins followed by substrate addition and measured after 1 hr by HTRF assay
Sequence (P42336 whole entry, canonical isoform): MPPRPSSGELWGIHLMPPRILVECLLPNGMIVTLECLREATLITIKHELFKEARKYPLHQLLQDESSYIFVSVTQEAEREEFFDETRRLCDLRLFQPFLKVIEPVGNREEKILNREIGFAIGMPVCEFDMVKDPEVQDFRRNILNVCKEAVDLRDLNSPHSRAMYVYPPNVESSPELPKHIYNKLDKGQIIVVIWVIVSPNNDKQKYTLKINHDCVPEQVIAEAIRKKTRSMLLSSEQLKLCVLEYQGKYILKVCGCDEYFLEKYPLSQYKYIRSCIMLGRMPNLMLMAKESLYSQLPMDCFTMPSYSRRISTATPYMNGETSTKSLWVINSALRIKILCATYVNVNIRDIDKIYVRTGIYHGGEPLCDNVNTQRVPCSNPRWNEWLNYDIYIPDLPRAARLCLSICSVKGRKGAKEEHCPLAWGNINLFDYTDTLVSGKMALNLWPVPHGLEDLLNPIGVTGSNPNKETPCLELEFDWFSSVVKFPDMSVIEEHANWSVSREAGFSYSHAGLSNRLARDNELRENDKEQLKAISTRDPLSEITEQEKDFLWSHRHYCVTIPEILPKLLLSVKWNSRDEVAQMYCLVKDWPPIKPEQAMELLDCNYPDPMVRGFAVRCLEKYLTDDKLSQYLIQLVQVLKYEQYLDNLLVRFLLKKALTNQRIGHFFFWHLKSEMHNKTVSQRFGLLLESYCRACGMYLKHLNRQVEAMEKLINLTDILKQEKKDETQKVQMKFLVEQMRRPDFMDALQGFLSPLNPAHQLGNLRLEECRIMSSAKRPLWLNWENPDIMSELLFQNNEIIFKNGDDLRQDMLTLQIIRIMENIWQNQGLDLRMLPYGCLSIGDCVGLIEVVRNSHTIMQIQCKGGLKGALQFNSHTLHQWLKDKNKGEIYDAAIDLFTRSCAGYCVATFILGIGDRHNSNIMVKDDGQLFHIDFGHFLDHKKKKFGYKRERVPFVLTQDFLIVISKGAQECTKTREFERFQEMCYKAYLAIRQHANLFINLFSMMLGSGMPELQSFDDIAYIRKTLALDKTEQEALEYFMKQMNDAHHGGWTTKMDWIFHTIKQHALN
READOUT_TYPE: IC50 (µM)
Answers are plain numbers, in µM.

// field: IC50; key: "CCOC(=O)c1nn(-c2ccccc2)c(=O)c2c(N)c(C#N)c(-c3cccs3)cc12" ; value = 10.5

###

molecular target: Phosphatidylinositol 4,5-bisphosphate 3-kinase catalytic subunit delta isoform (Homo sapiens, UniProt O00329); test: Inhibition of PI3Kdelta (unknown origin) using PIP2 as substrate preincubated for 15 mins followed by substrate addition and measured after 1 hr by HTRF assay
Sequence (O00329 whole entry, canonical isoform): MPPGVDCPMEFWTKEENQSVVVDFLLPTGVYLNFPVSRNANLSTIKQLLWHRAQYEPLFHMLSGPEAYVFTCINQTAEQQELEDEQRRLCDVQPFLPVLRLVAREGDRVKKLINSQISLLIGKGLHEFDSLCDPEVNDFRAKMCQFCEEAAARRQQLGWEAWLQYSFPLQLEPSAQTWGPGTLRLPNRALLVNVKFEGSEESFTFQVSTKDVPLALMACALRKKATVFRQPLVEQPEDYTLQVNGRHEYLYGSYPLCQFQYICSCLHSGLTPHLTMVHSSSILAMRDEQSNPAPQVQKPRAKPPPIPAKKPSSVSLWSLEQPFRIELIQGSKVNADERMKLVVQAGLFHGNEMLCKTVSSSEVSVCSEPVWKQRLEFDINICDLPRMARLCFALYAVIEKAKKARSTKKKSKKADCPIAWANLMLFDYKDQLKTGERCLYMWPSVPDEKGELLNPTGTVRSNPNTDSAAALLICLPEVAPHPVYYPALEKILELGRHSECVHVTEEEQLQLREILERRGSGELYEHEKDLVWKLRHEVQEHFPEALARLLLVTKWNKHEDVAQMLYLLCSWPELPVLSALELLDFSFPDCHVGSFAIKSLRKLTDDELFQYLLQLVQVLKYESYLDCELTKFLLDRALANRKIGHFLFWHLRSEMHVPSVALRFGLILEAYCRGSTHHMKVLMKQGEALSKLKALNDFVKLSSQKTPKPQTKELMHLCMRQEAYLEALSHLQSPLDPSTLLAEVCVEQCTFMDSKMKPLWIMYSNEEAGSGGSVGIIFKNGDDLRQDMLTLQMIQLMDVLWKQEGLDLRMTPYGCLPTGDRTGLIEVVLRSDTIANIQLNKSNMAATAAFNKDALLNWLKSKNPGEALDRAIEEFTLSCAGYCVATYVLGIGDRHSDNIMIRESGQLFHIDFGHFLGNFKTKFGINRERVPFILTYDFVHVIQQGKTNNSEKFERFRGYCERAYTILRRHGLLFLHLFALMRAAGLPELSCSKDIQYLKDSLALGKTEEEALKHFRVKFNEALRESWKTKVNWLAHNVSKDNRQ
READOUT_TYPE: pIC50
Answers are plain numbers, as −log10 of the molar value.

Reported pIC50 ( "CCOC(=O)c1nn(-c2ccccc2)c(=O)c2c(N)c(C#N)c(-c3cccs3)cc12" ) = 5.13

###

Target: Histone deacetylase 8 (Homo sapiens)
Sequence (Q9BY41 whole entry): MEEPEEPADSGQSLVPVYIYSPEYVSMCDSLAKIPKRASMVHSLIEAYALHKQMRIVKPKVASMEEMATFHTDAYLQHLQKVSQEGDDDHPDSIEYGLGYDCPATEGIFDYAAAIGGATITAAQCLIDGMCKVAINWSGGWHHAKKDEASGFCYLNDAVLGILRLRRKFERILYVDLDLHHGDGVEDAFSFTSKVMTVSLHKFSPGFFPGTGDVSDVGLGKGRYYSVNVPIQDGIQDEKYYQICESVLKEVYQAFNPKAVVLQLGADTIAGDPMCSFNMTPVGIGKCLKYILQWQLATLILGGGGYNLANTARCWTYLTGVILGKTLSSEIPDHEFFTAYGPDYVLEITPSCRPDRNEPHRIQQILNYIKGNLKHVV
Experiment: Inhibition of HDAC8 (unknown origin) by fluorescence based assay
READOUT_TYPE: pIC50
Numbers only, as −log10 of the molar value.

Query "O=C(NO)c1ccc(/C=N/NC(=O)c2cc(N3CCOCC3)nc(-c3cccc4[nH]ncc34)n2)cc1" yields pIC50 of 7.18
